tgt: Histone deacetylase (HDAC1 and HDAC2) (Homo sapiens, UniProt Q13547+Q92769)
assay_summary: Inhibitory activity was tested against histone deacetylase (HDAC).
Format: protein assay
parameter: log10 of IC50 (log10 of the value in nM)

smiles_entry	log10 of IC50
O=C(CCCCCCNC(=O)c1cn(Cc2ccccc2)c2ccccc12)NO	1.08
Cn1cc(C(=O)NCCCCCCC(=O)NO)c2ccccc21	1.75
O=C(CCCCCCNC(=O)c1cc2cc(F)ccc2[nH]1)NO	0.73
O=C(CCCCCCNC(=O)c1cc2cc(Cl)ccc2o1)NO	1.18
O=C(CCCCCCNC(=O)c1cn(-c2ccc(Br)cc2)c2ccccc12)NO	1.28
O=C(CCCCCCNC(=O)c1cccc2[nH]ccc12)NO	1.90

----------
In this section we review reported IC50 values for a set of compounds.
tgt: Histone deacetylase (HDAC1 and HDAC2) (Homo sapiens, UniProt Q13547+Q92769)
assay_summary: Inhibitory activity was tested against histone deacetylase (HDAC).
Type: protein assay

compound	IC50 [nM]
COc1ccc2cc(C(=O)NCCCCCCC(=O)NO)[nH]c2c1	9.9
CC1c2ccccc2CC1C(=O)NCCCCCCC(=O)NO (stereo not drawn)	732
O=C(CCCCCCNC(=O)c1ccc2cc[nH]c2c1)NO	56.5
O=C(CCCCCNC(=O)c1cc2ccccc2[nH]1)NO	12.5
O=C(CCCCCNC(=O)c1cccc2[nH]ccc12)NO	87.6
O=C(CCCCCCNC(=O)c1ccc[nH]1)NO	524
O=C(CCCCCNC(=O)c1cccc2cc[nH]c12)NO	37.6
O=C(CCCCCCNC(=O)c1ccc2[nH]ccc2c1)NO	31.4
O=C(CCCCCCNC(=O)c1cc2ccccc2o1)NO	29.6
O=C(CCCCCCNC(=O)c1cc2cc(Br)ccc2[nH]1)NO	3.5
Cc1c(C(=O)NCCCCCCC(=O)NO)oc2ccccc12	12.5
COc1cccc2cc(C(=O)NCCCCCCC(=O)NO)oc12	17
O=C(CCCCCCNC(=O)c1cn(-c2ccc(F)cc2)c2ccccc12)NO	11.8
